Attribution: ChEMBL document CHEMBL1125485

Species: Oryctolagus cuniculus
Assay: Inhibition of platelet aggregation using collagen as activating agent in rabbit platelet rich plasma (PRP)
Assay type: functional
pEC50: −log10 of the molar value.
In this scheme, each record receives a class according to its pEC50; the ranges are interval 1 (below 6), interval 2 (6 to below 7), interval 3 (7 or more)

{"Entry Smiles": "CC(C)OC(=O)CCCOc1ccc2[nH]c3nc(O)nc-3cc2c1", "Category Label": "interval 3"}
{"Entry Smiles": "O=C(O)CCCCc1ccc2[nH]c3nc(O)nc-3cc2c1", "Category Label": "interval 1"}
{"Entry Smiles": "CN(C(=O)CCCOc1ccc2nc3[nH]c(=O)[nH]c3cc2c1)C1CCCCC1", "Category Label": "interval 3"}
{"Entry Smiles": "O=C(O)C1CCN(C(=O)CCCOc2ccc3[nH]c4nc(O)nc-4cc3c2)CC1", "Category Label": "interval 2"}
{"Entry Smiles": "O=C(O)CCCOc1ccc2c(c1)CN1CC(=O)NC1=N2", "Category Label": "interval 1"}
{"Entry Smiles": "CN(C(=O)CCCOc1ccc2nc3c(cc2c1)n(C)c(=O)n3C)C1CCCCC1", "Category Label": "interval 1"}
{"Entry Smiles": "CC(=O)OCCCCOc1ccc2[nH]c3nc(O)nc-3cc2c1", "Category Label": "interval 2"}
{"Entry Smiles": "Cn1c(O)nc2nc3ccc(OCCCC(=O)N4CCCCC4)cc3cc21", "Category Label": "interval 1"}
{"Entry Smiles": "Oc1nc2cc3cc(OCCCCc4nnnn4C4CCCCC4)ccc3[nH]c-2n1", "Category Label": "interval 3"}

* * *

Biological target: cGMP-dependent 3',5'-cyclic phosphodiesterase (Homo sapiens)
Sequence (O00408 whole entry): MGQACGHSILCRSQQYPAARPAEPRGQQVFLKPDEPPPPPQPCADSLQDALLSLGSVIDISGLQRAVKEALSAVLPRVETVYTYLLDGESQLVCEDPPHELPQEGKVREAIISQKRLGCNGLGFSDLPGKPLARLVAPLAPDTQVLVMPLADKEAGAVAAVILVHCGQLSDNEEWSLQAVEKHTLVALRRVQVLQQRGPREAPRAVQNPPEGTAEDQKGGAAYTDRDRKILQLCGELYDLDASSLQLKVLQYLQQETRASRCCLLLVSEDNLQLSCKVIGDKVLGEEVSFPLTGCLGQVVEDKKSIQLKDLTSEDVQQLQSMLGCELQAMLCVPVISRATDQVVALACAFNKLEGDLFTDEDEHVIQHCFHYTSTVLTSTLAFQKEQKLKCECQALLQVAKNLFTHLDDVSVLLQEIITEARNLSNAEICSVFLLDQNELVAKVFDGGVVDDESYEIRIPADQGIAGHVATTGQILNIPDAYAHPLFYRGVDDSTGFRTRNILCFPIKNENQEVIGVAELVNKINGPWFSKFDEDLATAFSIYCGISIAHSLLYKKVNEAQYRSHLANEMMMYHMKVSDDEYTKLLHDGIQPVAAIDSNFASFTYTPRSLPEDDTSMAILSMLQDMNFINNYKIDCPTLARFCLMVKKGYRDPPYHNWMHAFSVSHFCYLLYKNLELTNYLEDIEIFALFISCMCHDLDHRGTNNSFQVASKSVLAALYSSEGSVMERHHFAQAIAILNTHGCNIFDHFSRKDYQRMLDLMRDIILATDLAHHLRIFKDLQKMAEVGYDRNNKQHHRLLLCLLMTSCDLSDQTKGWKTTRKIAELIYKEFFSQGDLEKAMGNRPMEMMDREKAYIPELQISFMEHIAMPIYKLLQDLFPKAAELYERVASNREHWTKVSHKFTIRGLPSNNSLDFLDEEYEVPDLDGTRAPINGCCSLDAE
Experiment: Inhibition of human platelet PDE by inhibiting cyclic Guanosine monophosphate (cGMP) hydrolysis
pIC50: −log10 of the molar value.
Metric: pIC50

{"Entry Smiles": "Cn1c(O)nc2nc3ccc(OCCCC(=O)NC4CCCCC4)cc3cc21", "Metric": "pIC50", "Reading": "< 4.00"}
{"Entry Smiles": "COC(=O)CCCCCOc1ccc2nc3[nH]c(=O)[nH]c3cc2c1", "Metric": "pIC50", "Reading": "< 4.00"}
{"Entry Smiles": "O=c1[nH]c2cc3cc(OCCCS(=O)(=O)c4ccccc4)ccc3nc2[nH]1", "Metric": "pIC50", "Reading": "< 4.00"}
{"Entry Smiles": "O=c1[nH]c2cc3cc(OCCCCS(=O)(=O)c4ccccc4)ccc3nc2[nH]1", "Metric": "pIC50", "Reading": "< 4.00"}
{"Entry Smiles": "COC(=O)CCCCOc1ccc2[nH]c3nc(O)nc-3cc2c1", "Metric": "pIC50", "Reading": "< 4.00"}

* * *

Biological target: Phosphodiesterase 3 (Homo sapiens, UniProt Q14432+Q13370)
Assay: Inhibition of human platelet PDE by inhibiting cyclic Adenosine monophosphate (cAMP) hydrolysis
Label t when IC50 is strictly below 40 nM; at or above that, label f.

{"Entry Smiles": "CN(C(=O)CCCOc1ccc2nc3c(cc2c1)nc(O)n3C)C1CCCCC1", "Category Label": "f"}
{"Entry Smiles": "CC(=O)OCCCOc1ccc2[nH]c3nc(O)nc-3cc2c1", "Category Label": "f"}
{"Entry Smiles": "CN(C(=O)CCCOc1ccc2nc3[nH]c(=O)[nH]c3cc2c1)C1CCCCC1", "Category Label": "t"}
{"Entry Smiles": "OCCCOc1ccc2[nH]c3nc(O)nc-3cc2c1", "Category Label": "t"}
{"Entry Smiles": "COC(=O)CCCCc1ccc2[nH]c3nc(O)nc-3cc2c1", "Category Label": "f"}
{"Entry Smiles": "O=C(CCCOc1ccc2[nH]c3nc(O)nc-3cc2c1)NC1CCCC1", "Category Label": "t"}
{"Entry Smiles": "O=C(O)COc1ccc2[nH]c3nc(O)nc-3cc2c1", "Category Label": "f"}

* * *

Measured log10 of EC50 values are reported for all entries that follow.
Organism: Oryctolagus cuniculus
Assay: Inhibition of platelet aggregation using collagen as activating agent in rabbit platelet rich plasma (PRP)
Type: functional
Metric: log10 of EC50 (log10 of the value in nM)

{"Entry Smiles": "COC(=O)CCCCCOc1ccc2nc3[nH]c(=O)[nH]c3cc2c1", "Metric": "log10 of EC50", "Reading": 1.43}
{"Entry Smiles": "OCCCCOc1ccc2[nH]c3nc(O)nc-3cc2c1", "Metric": "log10 of EC50", "Reading": 1.52}
{"Entry Smiles": "CN(C(=O)CCCOc1ccc2nc3nc(O)n(C)c3cc2c1)C1CCCCCC1", "Metric": "log10 of EC50", "Reading": 1.00}
{"Entry Smiles": "Cn1c(O)nc2nc3ccc(OCCCC(=O)NC4CCCCC4)cc3cc21", "Metric": "log10 of EC50", "Reading": 1.30}
{"Entry Smiles": "Cn1c(O)nc2cc3cc(OCCCC(=O)O)ccc3nc21", "Metric": "log10 of EC50", "Reading": 2.00}
{"Entry Smiles": "COC(=O)CCCOc1ccc2nc3[nH]c(=O)[nH]c3cc2c1", "Metric": "log10 of EC50", "Reading": 1.30}
{"Entry Smiles": "CCOC(=O)CCc1ccc2[nH]c3nc(O)nc-3cc2c1", "Metric": "log10 of EC50", "Reading": 2.15}
{"Entry Smiles": "N#CCCCOc1ccc2[nH]c3nc(O)nc-3cc2c1", "Metric": "log10 of EC50", "Reading": 1.52}
{"Entry Smiles": "O=C(CCCOc1ccc2nc3[nH]c(=O)[nH]c3cc2c1)NC1CCCCC1", "Metric": "log10 of EC50", "Reading": 0.85}
{"Entry Smiles": "OCCCCCc1ccc2[nH]c3nc(O)nc-3cc2c1", "Metric": "log10 of EC50", "Reading": 2.34}
{"Entry Smiles": "Oc1nc2cc3cc(OCCCCc4nnn[nH]4)ccc3[nH]c-2n1", "Metric": "log10 of EC50", "Reading": 3.00}
{"Entry Smiles": "N#CCCCCOc1ccc2[nH]c3nc(O)nc-3cc2c1", "Metric": "log10 of EC50", "Reading": 2.11}
{"Entry Smiles": "CNC(=O)CCCOc1ccc2[nH]c3nc(O)nc-3cc2c1", "Metric": "log10 of EC50", "Reading": 2.92}
{"Entry Smiles": "CN(C(=O)CCCCc1ccc2[nH]c3nc(O)nc-3cc2c1)C1CCCCC1", "Metric": "log10 of EC50", "Reading": 1.41}
{"Entry Smiles": "CN(C(=O)CCCCOc1ccc2[nH]c3nc(O)nc-3cc2c1)C1CCCCC1", "Metric": "log10 of EC50", "Reading": -0.70}
{"Entry Smiles": "O=C(CCCOc1ccc2nc3[nH]c(=O)[nH]c3cc2c1)N1CCOCC1", "Metric": "log10 of EC50", "Reading": 1.30}
{"Entry Smiles": "CN(C)C(=O)CCCOc1ccc2[nH]c3nc(O)nc-3cc2c1", "Metric": "log10 of EC50", "Reading": 2.98}

* * *

Organism: Oryctolagus cuniculus
Experiment: Inhibition of platelet aggregation using collagen as activating agent in rabbit platelet rich plasma (PRP)
Assay type: functional
pEC50: −log10 of the molar value.

{"Entry Smiles": "CCOCCOc1ccc2[nH]c3nc(O)nc-3cc2c1", "pEC50": 5.89}
{"Entry Smiles": "CN(C(=O)CCCOc1ccc2nc3c(cc2c1)nc(O)n3C)C1CCCCC1", "pEC50": 6.89}
{"Entry Smiles": "Cn1c(=O)n(C)c2nc3ccc(OCCCC(=O)O)cc3cc21", "pEC50": 5.90}
{"Entry Smiles": "CC(=O)CCCOc1ccc2[nH]c3nc(O)nc-3cc2c1", "pEC50": 7.15}
